# System: Fibrinogen (Alexa647-labelled)
# EXPERIMENTAL_DETAILS: fibrinogen binders on compound microarrays, profiling panel, artefact control for SMM control-protein annotation, biochemical, small-molecule microarray, 635/667 nm fluorescence (AID 1131);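 also: z-score merges 667 nm fluorescence with per-spot signal-to-noise over triplicate slides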
# ASSAY_CONDITIONS: fibrinogen-A647 binding fluorescence, higher = more signal
Quick list: composite z-score per entry.

Use these answered entries as a reference point.
[[record]]
compound = "COC(=O)[C@@H]1N=C(c2ccc(OCCCO)cc2)O[C@@H]1c1ccccc1N=[N+]=[N-]"
observed_property = "composite z-score"
measured_value = 0.077

[[record]]
compound = "CCc1cc2c(nc1CC)CCN(CCC(C)=NO[C@@H](C)c1cc(-c3c(C)cc(C)cc3C)no1)C2"
observed_property = "composite z-score"
measured_value = 0.397

[[record]]
compound = "O=C1[C@H]2[C@H]3[C@H](O)[C@H](O)CC(=NOCc4ccccc4)[C@H]3CC[C@H]2C(=O)N1C[C@@H]1CCCO1"
observed_property = "composite z-score"
measured_value = 0.953

[[record]]
compound = "C#CCCCON=C1C[C@@H](O)[C@@H](O)[C@@H]2[C@@H]3C(=O)N(Cc4ccccc4)C(=O)[C@@H]3CC[C@H]12"
observed_property = "composite z-score"
measured_value = -0.307

[[record]]
compound = "COc1ccc(O[C@H]2C=C[C@@H](c3ccccc3)O[C@@H]2COC(=O)N2CCCCC2)cc1"
observed_property = "composite z-score"
measured_value = -0.528


Identify the reported composite z-score for the following entry. CC(C)N1CC=CC23O[C@@H]4C=CCCOC(=O)C4[C@H]2C(=O)N(CCCCCCO)[C@@H]3C1=O (stereo not given in full)
-1.2

Dear colleague, please send me the reported composite z-score for COc1ccc(-c2ccc3c(n2)CCCN3CC(O)CN2CCCc3nc(C)c(C)cc32)cc1 (stereo not given) when you can.
0.733

Recall and state the measured composite z-score for CC[C@@H](c1ccccc1)n1c(=O)n2n(c1=O)[C@H]1[C@H](O)[C@@H]3O[C@@H]3C(=NOCC=C(C)CCC=C(C)C)[C@H]1CC2 .
0.417

Specify reported composite z-score for the compound shown: CCN1C(=O)[C@H]2[C@H]3[C@H](O)[C@H](O)CC(=NOCc4ccccc4)[C@H]3CC[C@H]2C1=O
0.443

###

# EXPERIMENTAL_SYSTEM: Concanavalin-A (Canavalia ensiformis) (UniProt P02866)
# Sequence (P02866 whole entry, looked up): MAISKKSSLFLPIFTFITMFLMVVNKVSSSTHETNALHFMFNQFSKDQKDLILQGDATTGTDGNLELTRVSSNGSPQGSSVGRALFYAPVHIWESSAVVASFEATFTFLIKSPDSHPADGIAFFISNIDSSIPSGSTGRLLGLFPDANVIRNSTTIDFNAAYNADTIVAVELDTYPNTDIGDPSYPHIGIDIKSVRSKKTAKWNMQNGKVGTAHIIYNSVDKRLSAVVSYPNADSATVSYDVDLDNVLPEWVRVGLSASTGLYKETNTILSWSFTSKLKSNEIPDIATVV
# EXPERIMENTAL_DETAILS: ConA small-molecule binders, primary screen, artefact control for SMM control protein annotation, biochemical, small-molecule microarray, Alexa647 label, 635 nm (AID 1127);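 also: z combines 667 nm emission intensity with signal-to-noise across three replicate slides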
# ASSAY_CONDITIONS: ConA-A647 binding fluorescence, higher = more signal
The reader will find reported composite z-score values listed item by item below.
I'd appreciate a reply containing only the number, no unit.

These solved cases illustrate the format of a correct answer.
[[record]]
compound = "C=CCC(OC(C)=O)[C@@H]1[C@@H](N(Cc2cc3ccccc3o2)C(=O)Cc2ccc(F)cc2)c2cc(OCCCO)ccc2N1C(=O)Cc1ccc(OC)cc1 (stereo partly drawn)"
measured_value = -0.437

[[record]]
compound = "CC(CCN1CCc2nc(-c3ccccc3)c(-c3ccccc3)cc2C1)=NOC[C@@H](C)[C@H](OCc1ccccc1)C(C)C"
measured_value = -0.198

[[record]]
compound = "CC(CCC(=O)OC[C@H]1O[C@H](C#Cc2ccccc2)C=C[C@@H]1Oc1ccc(C)cc1)=NO[C@@H](C)c1cn([C@H](CO)Cc2ccccc2)nn1"
measured_value = 0.27

[[record]]
compound = "C#CCCCON=C1C[C@@H](O)[C@@H](O)[C@@H]2[C@@H]3C(=O)N([C@@H](C)c4ccccc4)C(=O)[C@@H]3CC[C@H]12"
measured_value = 0.282


Tell me composite z-score reported for CC(C)c1ccc(NN2C(C(O)c3ccc4c(c3)OCO4)C=CC3C(=O)N(c4ccccc4)C(=O)C32)cc1 (stereo not drawn)
1.18

Supply reported composite z-score belonging to this compound: COCCNC(=O)OCC1CCCC2(CC(OC(=O)NCCc3ccc(F)cc3)CC(CCC(=O)N[C@@H](C)C(=O)OC)O2)O1 (stereo partly drawn)
0.769

Please list composite z-score recorded for the compound Cc1ccc(C2CC=C(C(=O)O)CN2S(=O)(=O)c2ccc(C)cc2)cc1 (stereo not drawn)
1.12

Report measured composite z-score; entry is COC(=O)CC=C[C@@H](C)[C@H](OC)c1ccccc1Br
-0.24
